Reported isoTOP-ABPP ratio, P24752_C196 is given for each of the following compounds.
SYSTEM: ACAT1 C196 (P24752) (Homo sapiens, UniProt P24752)
Sequence (P24752 34-427): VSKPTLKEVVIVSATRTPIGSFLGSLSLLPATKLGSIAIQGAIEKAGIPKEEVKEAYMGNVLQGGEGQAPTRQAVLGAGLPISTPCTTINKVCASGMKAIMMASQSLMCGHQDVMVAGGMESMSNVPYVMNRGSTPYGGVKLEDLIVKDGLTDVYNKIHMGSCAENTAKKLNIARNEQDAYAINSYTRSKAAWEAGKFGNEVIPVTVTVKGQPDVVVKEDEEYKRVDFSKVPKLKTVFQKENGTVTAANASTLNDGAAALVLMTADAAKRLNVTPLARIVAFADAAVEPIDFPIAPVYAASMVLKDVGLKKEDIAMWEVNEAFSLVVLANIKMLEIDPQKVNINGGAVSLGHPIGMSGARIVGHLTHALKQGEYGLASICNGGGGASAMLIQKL
ASSAY_OVERVIEW: Competitive isoTOP-ABPP, cell lysates
Assay type: binding
CONDITION_INFO: 500 μM, invitro, ramos
Could you respond with only the numeric value?

[
  {
    "SMILES_STRUCTURE": "O=C(CCl)NCCc1c[nH]c2ccccc12",
    "SYSTEM": "ACAT1 C196 (P24752) (Homo sapiens, UniProt P24752)",
    "isoTOP-ABPP ratio, P24752_C196": 1.7
  },
  {
    "SMILES_STRUCTURE": "O=C(CCl)NC(=O)NC12CC3CC(CC(C3)C1)C2",
    "SYSTEM": "ACAT1 C196 (P24752) (Homo sapiens, UniProt P24752)",
    "isoTOP-ABPP ratio, P24752_C196": 0.9
  },
  {
    "SMILES_STRUCTURE": "O=C(CCl)N1CCN(S(=O)(=O)c2ccccc2F)CC1",
    "SYSTEM": "ACAT1 C196 (P24752) (Homo sapiens, UniProt P24752)",
    "isoTOP-ABPP ratio, P24752_C196": 1.7
  },
  {
    "SMILES_STRUCTURE": "Cn1cc(S(=O)(=O)N2CCOCC2)cc1C(=O)NC(=O)CCl",
    "SYSTEM": "ACAT1 C196 (P24752) (Homo sapiens, UniProt P24752)",
    "isoTOP-ABPP ratio, P24752_C196": 1.3
  }
]

Ask | Quick one: isoTOP-ABPP ratio, P24752_C196 for "C=CC(=O)N(c1ccccc1)c1ccc(Br)cc1" ?
Reply | 2.2

---

Reported isoTOP-ABPP ratio Q96RN5_C618 is given for each of the following compounds.
SYSTEM: cysteines in MDA-MB-231 and Ramos cells (Homo sapiens, UniProt Q96RN5)
Sequence (Q96RN5 whole entry, the tested form may be a part): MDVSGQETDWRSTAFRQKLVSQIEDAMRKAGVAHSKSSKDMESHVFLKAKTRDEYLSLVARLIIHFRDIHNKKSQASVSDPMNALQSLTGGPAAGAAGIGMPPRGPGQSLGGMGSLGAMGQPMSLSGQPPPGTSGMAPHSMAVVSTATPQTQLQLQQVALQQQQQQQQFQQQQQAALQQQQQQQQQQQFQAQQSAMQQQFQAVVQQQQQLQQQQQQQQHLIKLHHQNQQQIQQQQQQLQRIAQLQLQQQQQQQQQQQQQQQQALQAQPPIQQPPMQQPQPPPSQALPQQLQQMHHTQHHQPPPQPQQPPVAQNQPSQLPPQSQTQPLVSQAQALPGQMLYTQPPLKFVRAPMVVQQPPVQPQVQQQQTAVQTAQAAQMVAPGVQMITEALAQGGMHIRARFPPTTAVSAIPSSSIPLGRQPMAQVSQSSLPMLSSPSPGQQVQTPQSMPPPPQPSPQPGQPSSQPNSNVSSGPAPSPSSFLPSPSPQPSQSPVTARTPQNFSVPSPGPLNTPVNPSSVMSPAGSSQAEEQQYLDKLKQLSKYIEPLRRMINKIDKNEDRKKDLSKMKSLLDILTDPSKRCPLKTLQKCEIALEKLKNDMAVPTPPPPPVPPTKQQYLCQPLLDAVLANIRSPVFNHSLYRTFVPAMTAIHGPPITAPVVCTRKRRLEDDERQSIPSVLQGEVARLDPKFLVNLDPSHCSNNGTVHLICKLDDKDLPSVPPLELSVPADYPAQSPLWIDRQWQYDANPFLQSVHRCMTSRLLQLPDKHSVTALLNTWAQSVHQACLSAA
ASSAY_OVERVIEW: Competitive isoTOP-ABPP in situ (fragment-treated cells)
Format: cell-based
CONDITION_INFO: 200 μM, insitu, 231
Could you respond with only the numeric value?

Example cases with answers are listed next.
[
  {
    "SMILES_STRUCTURE": "O=C(CCl)Nc1cccc2ncccc12",
    "ASSAY_ENDPOINT": "isoTOP-ABPP ratio Q96RN5_C618",
    "READOUT_NUMBER": 2.1
  },
  {
    "SMILES_STRUCTURE": "O=C(CCl)NC(=O)NC12CC3CC(CC(C3)C1)C2",
    "ASSAY_ENDPOINT": "isoTOP-ABPP ratio Q96RN5_C618",
    "READOUT_NUMBER": 20.0
  }
]

Lab note: next compound to report on.
Ask | Quick one: isoTOP-ABPP ratio Q96RN5_C618 for "O=C(CCl)NCCc1c[nH]c2ccccc12" ?
Reply | 1.0

Source: patent US10670605B2
